Test system: OVCAR-4 ovarian
Assay: NCI tumour cell line growth inhibition, 48 h
Listed below: TGI values for each entry.
result type: TGI

{"columns": ["compound", "result value"],
 "data": [
  ["O=C(c1cc(Cc2n[nH]c(=O)c3ccccc23)ccc1F)N1CCN(C(=O)C2CC2)CC1", "> 100 µM"],
  ["S=C(NCc1ccc2c(c1)OCO2)N1CCN(c2ncnc3c2oc2ccccc23)CC1", "> 100 µM"],
  ["CC(C)=CCC/C(C)=C/CCC1(C)C=Cc2c(c3ccccc3oc2=O)O1 (stereo not given)", "28.4 µM"],
  ["c1n[nH]cc1C12C3C4C5C3C1C5C42 (stereo not given)", "> 100 µM"],
  ["CCN1C[C@]2(C)CC[C@H](OC)C34C5C[C@@H]6[C@@H](OC)C[C@@](OC)(C5[C@H]6OCc5ccccc5)C(C13)[C@H](OC(C)=O)[C@@H]42 (stereo not given in full)", "> 100 µM"],
  ["COC(=O)CCC(NC(=S)N/N=C(\\C)c1cnccn1)C(=O)OC (stereo not given)", "> 100 µM"],
  ["Cc1c(C2=NN=C(N=Nc3c(O)cccc3O)/C2=C/c2ccccc2)c(=O)n(-c2ccccc2)n1C", "> 100 µM"],
  ["CCOC(=O)C(CCCNC(=O)OC(C)(C)C)N(Cc1ccc(OC)cc1OC)C(=O)CC(=O)CP(=O)(OCC)OCC (stereo not given)", "> 100 µM"],
  ["Cc1ccc(C2=Nc3ccccc3SC(c3cccc4c3OCO4)C2)cc1 (stereo not given)", "33.7 µM"],
  ["N#CNC1=NC(N)C(c2nc3ccccc3[nH]2)=C(CCCC(=O)Nc2cccc([N+](=O)[O-])c2)N1 (stereo not given)", "> 100 µM"],
  ["O=c1cc(CNC2CC3CCC2C3)[nH]c(=O)[nH]1 (stereo not given)", "> 100 µM"],
  ["CN(CCNC(=S)c1cn(C)c2c1ccc1ccccc12)CCNC(=S)c1cn(C)c2c1ccc1ccccc12", "> 100 µM"],
  ["C[C@H](NC(=O)CNC(=O)CCCCCC(=O)NCC(=O)N[C@@H](C)C(=O)OCc1ccccc1)C(=O)OCc1ccccc1", "> 100 µM"],
  ["O=C1c2ccccc2C(=O)c2c1cc1c(c2[N+](=O)[O-])OCO1", "4.85 µM"],
  ["CC1SC(c2ccc(Cl)cc2)N(CCc2cccs2)C1=O (stereo not given)", "2.44 µM"],
  ["c1ccc2cc3c(cc2c1)OP1(Oc2cccc4cccnc24)(O3)Oc2cc3ccccc3cc2O1", "11.8 µM"],
  ["CN(C)CCCn1c2c(c3cc4c(cc3c1=O)OCO4)C(=O)c1ccccc1-2", "> 23.3 µM"],
  ["C[P+]1(c2ccccc2)CCCCC1", "> 100 µM"],
  ["Nc1nc2ncn(CC(O)CO)c2c(=O)[nH]1 (stereo not given)", "> 100 µM"],
  ["COc1ccc2nc3cc(Cl)ccc3c(N3CCN(c4ccnc(N5CCN(C)CC5)n4)CC3)c2c1", "3.02 µM"]
]}
